target: UniProt:Q12809; assay: hERG patch clamp study; type: cell-based
Sequence (Q12809 whole entry): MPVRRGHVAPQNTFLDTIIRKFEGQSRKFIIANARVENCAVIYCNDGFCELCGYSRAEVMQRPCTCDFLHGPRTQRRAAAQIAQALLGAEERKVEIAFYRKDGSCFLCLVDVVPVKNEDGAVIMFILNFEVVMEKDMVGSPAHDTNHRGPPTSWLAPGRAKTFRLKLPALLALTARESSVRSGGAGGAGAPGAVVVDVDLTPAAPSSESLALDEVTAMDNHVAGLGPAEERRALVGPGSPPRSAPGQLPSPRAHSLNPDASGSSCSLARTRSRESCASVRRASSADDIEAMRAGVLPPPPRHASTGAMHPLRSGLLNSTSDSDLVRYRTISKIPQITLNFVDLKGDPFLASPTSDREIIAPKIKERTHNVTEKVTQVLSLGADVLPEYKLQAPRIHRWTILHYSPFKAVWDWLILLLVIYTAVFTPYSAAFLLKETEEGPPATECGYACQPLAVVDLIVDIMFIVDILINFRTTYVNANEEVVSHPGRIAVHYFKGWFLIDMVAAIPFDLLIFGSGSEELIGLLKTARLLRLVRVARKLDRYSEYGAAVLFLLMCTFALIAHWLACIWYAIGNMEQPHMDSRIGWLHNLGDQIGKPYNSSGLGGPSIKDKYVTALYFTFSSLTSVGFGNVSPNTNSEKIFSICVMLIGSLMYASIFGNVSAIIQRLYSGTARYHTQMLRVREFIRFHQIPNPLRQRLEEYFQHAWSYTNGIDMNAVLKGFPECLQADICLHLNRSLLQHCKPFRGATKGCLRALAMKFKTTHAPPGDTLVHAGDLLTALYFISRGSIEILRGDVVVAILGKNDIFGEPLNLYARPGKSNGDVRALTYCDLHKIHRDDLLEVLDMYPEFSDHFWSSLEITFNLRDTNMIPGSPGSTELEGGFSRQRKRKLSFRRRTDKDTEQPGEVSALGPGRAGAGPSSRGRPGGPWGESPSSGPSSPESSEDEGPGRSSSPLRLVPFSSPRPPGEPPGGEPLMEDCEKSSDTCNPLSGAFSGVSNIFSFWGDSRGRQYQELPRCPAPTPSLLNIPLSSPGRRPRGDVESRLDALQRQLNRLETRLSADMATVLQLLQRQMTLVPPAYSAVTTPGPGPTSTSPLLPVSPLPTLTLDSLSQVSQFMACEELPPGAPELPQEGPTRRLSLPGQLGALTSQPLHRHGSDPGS

- chemSmiles: "COc1c(Nc2ccc(S(C)(=O)=O)nc2C)ncnc1OC1CCN(C(=O)OC(C)C)CC1"
  assayedTarget: "UniProt:Q12809"
  unitText: "µM"
  IC50: 13
